# Test system: Salmonella typhimurium
# protocol.description: Antimicrobial activity against Salmonella Typhimurium ATCC 14028 assessed as inhibition of planktonic growth at 10 uM at 25 degC after 24 hrs
# Assay type: functional, organism-based
# conditions.used: Salmonella enterica subsp. enterica serovar Typhimurium
Calls of active or inactive are those of the source. The calls are words filed in the database; no cut-off is given here.
Outcomes: active, inactive

- CCCCCCCCCCn1c(-c2ccc(Cl)cc2)cnc1N: active
- CCCCCCCCn1c(-c2ccc(Cl)c(Cl)c2)cnc1N: active
- CCCCCn1c(-c2ccccc2)cnc1N: inactive
- Nc1ncc(-c2ccc(Cl)cc2)n1C1CCCCCCC1: inactive
- Nc1nc(-c2ccccc2)c(-c2ccccc2)n1C1CCCCC1: inactive
- CCCCCCCCCCCCCCn1c(-c2ccccc2)cnc1N: inactive
- CCn1c(-c2ccc(-c3ccccc3)cc2)cnc1N: inactive
- CCCCCCCC[n+]1c(-c2cccc3ccccc23)cn2cccnc21.[O-][Cl+3]([O-])([O-])[O-]: active
- Nc1ncc(-c2ccccc2)n1C1CCCCCCC1: inactive
- Nc1ncc(-c2ccc([N+](=O)[O-])cc2)[nH]1: inactive
- CCCCCCCCn1c(-c2cccc(Br)c2)cnc1N: inactive
- CCCCCCCCn1c(-c2ccc(SC)cc2)cnc1N: active
- CCCCCCCCn1c(-c2ccc(F)cc2)cnc1N: inactive
- Nc1nc(-c2ccc(-c3ccccc3)cc2)c[nH]1: inactive
- CCCCCCCn1c(-c2ccc(-c3ccccc3)cc2)cnc1N: inactive
- CCCCCCCCCn1c(-c2ccc(Cl)cc2)cnc1N: active
- CCCCCCCC[n+]1c(-c2ccc(-c3ccc([N+](=O)[O-])cc3)cc2)cn2cccnc21.[O-][Cl+3]([O-])([O-])[O-]: active
